- experiment description: melting temperature; fluorescence melt of hairpins on a sequencing array, two-state fit, raised by 9.35 °C to match UV melts
- experimental setup: sodium 0.088 M
endpoint label: Tm (°C)
Answers are plain numbers, in °C.

GCGAGTCTTCGC ((((....))))	57.2
GATCAGGGTCTGATC ((((((...))))))	49.7

From here, focus on the item given below.
## Input Consider the sequence GCTTCGCCGAAAGGCAGC (((..(((....)))))) and give its measured Tm.
## Output 40.9

----------
- experiment description: melting temperature; fluorescence melt of hairpins on a sequencing array, two-state fit, raised by 9.35 °C to match UV melts
- experimental setup: sodium 0.088 M
endpoint label: Tm (°C)
One number for each entry, in °C.

Recorded Tm, per entry:
GTGTAAGCGAAAGCTCAC (((..(((....))))))	44.9
GTGTGACGAAAGTCTCAC (((.(((....))).)))	55.9
GCAGTAGGAAACTGTTGC (((..((....))..)))	32.2
GTTTGACCGAAAGGTAAC (((..(((....))))))	32.4
GTTTGGCGAAAGCCTAAC (((.(((....))).)))	51

Would you mind giving Tm for every sequence in the list below?
1. CGACACGGAAACGTATCG (((.(((....))).)))
2. GTACTGGGAAACTGGTAC ((((..(....)..))))
3. GATCGGCACACCGATC ((((((....))))))
4. GATCTCGTATGAGATC ((((((....))))))

## Output
1: 42.3; 2: 36.5; 3: 59; 4: 59.2

The following sequences each have a reported value; give each one's Tm.
1. GCGAGCGAAAGCTTACGC ((((((....)))..)))
2. GCCAGTGGAAACACCGGC (((.(((....))).)))

## Output
1. 50.7
2. 49.6

Batch request: Tm per item, same order as input.
1. GATTCACGAAAGTGCATC (((.(((....))).)))
2. GGAGTGGGAAACCACCCC ((.((((....)))).))
3. GCTGCGCGAAAGCGGCGC ((..(((....)))..))
4. GATCCAGGAGTGGATC ((((((....))))))
5. GAGTCCGAAAGGATACTC ((((((....)))..)))

## Output
1. 40.2
2. 47.1
3. 63.7
4. 52.5
5. 38.6

Batch request: Tm per item, same order as input.
1. GGGGTGAAAACCCC (((((....)))))
2. GTATTTCGAAAGAACTAC (((.(((....))).)))
3. GCCCACGGAAACGTAGGC (((.(((....))).)))
4. CGACACGGAAACGTTTCG (((.(((....))).)))
5. GCCATGCGAAAGCCTCGC ((.(.((....)).).))
6. GCTCAGCGAAAGCTTGGC ((..(((....)))..))
7. GATCCGTTGGCGGATC ((((((....))))))

## Output
66.6
31.7
48.4
44.8
34
39.7
59.6

Hey, can you go through the list below and give me Tm for every item?
1. GCACACACGAAAGTGTGC (((..(((....))))))
2. GTCTGACGAAAGTCGAC (((.(((....))))))
3. GCGTTAGGAAACTAATGC ((.((((....)))).))
4. GGAGGCGGAAACGTCTCC ((((.((....)).))))

## Output
1: 57.7; 2: 49; 3: 47.5; 4: 58.9

## Input Quick check: Tm of GCAGGAGGAAACTCTTGC (((.(((....))).))) ?
## Output 46.7
